Target: Glycylpeptide N-tetradecanoyltransferase (Candida albicans (strain SC5314 / ATCC MYA-2876) (Yeast), UniProt P30418)
Sequence (P30418 whole entry): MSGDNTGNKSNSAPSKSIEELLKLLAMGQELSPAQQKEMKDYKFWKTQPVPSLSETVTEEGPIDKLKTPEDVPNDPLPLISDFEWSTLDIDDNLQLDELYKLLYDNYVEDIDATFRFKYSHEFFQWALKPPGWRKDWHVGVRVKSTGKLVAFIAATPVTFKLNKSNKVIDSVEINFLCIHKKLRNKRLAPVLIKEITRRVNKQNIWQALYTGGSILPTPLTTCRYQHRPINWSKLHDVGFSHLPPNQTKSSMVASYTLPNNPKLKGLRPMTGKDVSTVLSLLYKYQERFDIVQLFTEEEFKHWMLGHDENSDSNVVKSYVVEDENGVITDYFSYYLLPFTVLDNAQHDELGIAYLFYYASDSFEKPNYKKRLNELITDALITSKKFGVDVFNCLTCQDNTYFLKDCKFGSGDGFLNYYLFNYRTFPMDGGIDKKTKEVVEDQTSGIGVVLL
Experiment: Inhibition of Candida albicans N-myristoyltransferse
ASSAY_ENDPOINT: IC50 (µM)
Lab book: enter the figure in µM, no units written.

COMPOUND: O=C(NCCCCCNCc1ccc2ccccc2c1)c1ccc2nc(NC(=O)C3CCCCC3)sc2c1
IC50 (µM): 0.3

# IC50 (compound: O=C(Nc1nc2ccc(NC(=O)[C@@H]3CC[C@H](NCc4ccc5ccccc5c4)C3)cc2s1)C1CCCC1 ) is 0.011

# IC50 (compound: O=C(Nc1ccc2nc(NC(=O)C3CCCCC3)sc2c1)C1CCCC(NCc2ccc3ccccc3c2)C1 (stereo not given) ) is 0.0081

* * *

Biological target: Glycylpeptide N-tetradecanoyltransferase (Candida albicans (strain SC5314 / ATCC MYA-2876) (Yeast), UniProt P30418)
Experiment: Inhibition of Candida albicans N-myristoyltransferse
Okay, here is how we bin by IC50: lower range (below 30 nM), middle range (30 nM to below 200 nM), upper range (200 nM or more)

Textbook exercise: identify the category of the compound given here, O=C(Nc1nc2ccc(NC(=O)[C@H]3CCC[C@@H](NCc4ccc5ccccc5c4)C3)cc2s1)C1CCCC1 , according to its measured value.
lower range

Textbook exercise: identify the category of the compound given here, O=C(CNCc1ccc2ccccc2c1)Nc1ccc2nc(NC(=O)C3CCCCC3)sc2c1 , according to its measured value.
upper range

Textbook exercise: identify the category of the compound given here, O=C(NCCNCc1ccc2ccccc2c1)c1ccc2nc(NC(=O)C3CCCC3)sc2c1 , according to its measured value.
lower range

Textbook exercise: identify the category of the compound given here, O=C(NCCCCNCc1ccc2ccccc2c1)c1ccc2nc(NC(=O)C3CCCCC3)sc2c1 , according to its measured value.
middle range

Textbook exercise: identify the category of the compound given here, O=C(NCCNCc1ccc2ccccc2c1)c1ccc2nc(NC(=O)C3CCNCC3)sc2c1 , according to its measured value.
upper range

Textbook exercise: identify the category of the compound given here, O=C(NCCNCc1ccc2ccccc2c1)c1ccc2nc(NC(=O)c3ccc(C(F)(F)F)cc3)sc2c1 , according to its measured value.
upper range

Textbook exercise: identify the category of the compound given here, CC(C)C(=O)Nc1nc2ccc(NC(=O)C3CCCC(NCc4ccc5ccccc5c4)C3)cc2s1 (stereo unspecified) , according to its measured value.
lower range

Textbook exercise: identify the category of the compound given here, O=C(NCc1ccc(CNCc2ccc3ccccc3c2)cc1)c1ccc2nc(NC(=O)C3CCCCC3)sc2c1 , according to its measured value.
upper range

Textbook exercise: identify the category of the compound given here, COc1ccc(OC)c(C(=O)Nc2nc3ccc(C(=O)NCCNCc4ccc5ccccc5c4)cc3s2)c1 , according to its measured value.
upper range

Textbook exercise: identify the category of the compound given here, O=C(Nc1nc2ccc(C(=O)N3CC(NCc4ccc5ccccc5c4)C3)cc2s1)C1CCCCC1 , according to its measured value.
middle range

Textbook exercise: identify the category of the compound given here, O=C(Nc1nc2ccc(C(=O)N3CCC(NCc4ccc5ccccc5c4)C3)cc2s1)C1CCCCC1 (stereo unspecified) , according to its measured value.
middle range

Textbook exercise: identify the category of the compound given here, O=C(CCCNCc1ccc2ccccc2c1)Nc1ccc2nc(NC(=O)C3CCCC3)sc2c1 , according to its measured value.
lower range

Textbook exercise: identify the category of the compound given here, O=C(NCCNCc1ccc2ccccc2c1)c1ccc2nc(NC(=O)c3ccc(Cl)cc3)sc2c1 , according to its measured value.
upper range

Textbook exercise: identify the category of the compound given here, O=C(NCCNCc1ccc2ccccc2c1)c1ccc2ncsc2c1 , according to its measured value.
upper range

Textbook exercise: identify the category of the compound given here, O=C(NCCNCc1ccc2ccccc2c1)c1ccc2nc(NC(=O)c3cnccn3)sc2c1 , according to its measured value.
upper range

Textbook exercise: identify the category of the compound given here, CC(=O)Nc1nc2ccc(C(=O)NCCNCc3ccc4ccccc4c3)cc2s1 , according to its measured value.
upper range

Textbook exercise: identify the category of the compound given here, O=C(NCCCNCc1ccc2ccccc2c1)c1ccc2nc(NC(=O)C3CCCCC3)sc2c1 , according to its measured value.
middle range

Textbook exercise: identify the category of the compound given here, Nc1nc2ccc(C(=O)NCCNCc3ccc4ccccc4c3)cc2s1 , according to its measured value.
upper range

Textbook exercise: identify the category of the compound given here, O=C(NCCNCc1ccc2ccccc2c1)c1ccc2nc(NC(=O)C3CCC3)sc2c1 , according to its measured value.
lower range

Textbook exercise: identify the category of the compound given here, CC(C)(C)OC(=O)Nc1nc2ccc(C(=O)NCCNCc3ccc4ccccc4c3)cc2s1 , according to its measured value.
upper range
